meta.source: patent US7723329B2

- STUDY_TARGET: human cloned 5-HT6 receptors (Homo sapiens, UniProt P50406)
- Construct: expressed in transfected cells; host or cells: HeLa cells
- Sequence (P50406 whole entry): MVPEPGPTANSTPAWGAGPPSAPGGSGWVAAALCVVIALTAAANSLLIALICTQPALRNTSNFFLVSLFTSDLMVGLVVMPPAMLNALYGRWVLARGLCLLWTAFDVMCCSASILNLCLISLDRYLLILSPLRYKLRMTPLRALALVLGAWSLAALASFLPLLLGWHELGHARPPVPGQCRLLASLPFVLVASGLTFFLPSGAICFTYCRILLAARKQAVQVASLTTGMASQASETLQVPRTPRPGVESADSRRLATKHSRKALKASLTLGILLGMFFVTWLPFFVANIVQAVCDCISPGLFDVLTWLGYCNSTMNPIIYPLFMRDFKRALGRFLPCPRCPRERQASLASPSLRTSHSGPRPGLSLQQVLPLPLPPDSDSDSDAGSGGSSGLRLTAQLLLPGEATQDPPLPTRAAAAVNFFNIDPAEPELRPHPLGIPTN
- EXPERIMENTAL_DETAILS: 5-HT6 binding affinity, [3H]-LSD displacement
- RUN_CONDITIONS: membranes of Hela cells expressing human cloned 5-HT6 receptors; [3H]-LSD 3.0 nM; 120 minutes at room temperature
pKi: −log10 of the molar value. Counter-ions that a name gives are not always drawn.
For each entry below, report its pKi value.

*Q* Can you look up the measured pKi of `CCN(CC)CCOc1ccc2c(c1)c(S(=O)(=O)c1cccc3ccccc13)nn2C` for me?
*A* 8.00 to 11.00

*Q* What about this compound? `NCCOc1cccc2c(S(=O)(=O)c3cccc4ccccc34)n[nH]c12`
*A* 8.00 to 11.00

*Q* What about this compound? `O=C(c1ccc2[nH]nc(S(=O)(=O)c3cccc4ccccc34)c2c1)N1CCNCC1`
*A* < 7.35

*Q* What about this compound? `NCCOc1cc(F)cc2c(S(=O)(=O)c3ccccc3)n[nH]c12`
*A* 8.00 to 11.00

*Q* What about this compound? O=S(=O)(c1ccccc1)c1n[nH]c2c(CCNC3CC3)cccc12 [Example 172, hydrochloride]
*A* 7.60 to 7.96

*Q* What about this compound? `Cn1nc(S(=O)(=O)c2cccc3ccccc23)c2cccc(OCCN3CCCC3)c21`
*A* 7.60 to 7.96

*Q* What about this compound? `O=S(=O)(c1cccc2ccccc12)c1n[nH]c2ccc(OCCCNC3CCCC3)cc12`
*A* 8.00 to 11.00

*Q* What about this compound? `CNCCOc1cccc2c(S(=O)(=O)c3cccc4ccccc34)nn(Cc3cccc(Cl)c3)c12`
*A* 7.60 to 7.96
